Values compiled from patent US20240254227A1.

Biological target: T1, murine CD300LB stably expressed on Jurkat cells (mouse, UniProt Q3U497 18-209)
T1 construct: also called muCD300LB; mouse CD300LB
T1 sequence: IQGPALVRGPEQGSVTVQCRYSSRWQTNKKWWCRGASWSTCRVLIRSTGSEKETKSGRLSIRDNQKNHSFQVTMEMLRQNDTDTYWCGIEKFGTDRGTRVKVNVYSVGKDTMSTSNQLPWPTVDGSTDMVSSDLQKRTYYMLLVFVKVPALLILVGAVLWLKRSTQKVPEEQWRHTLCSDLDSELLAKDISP
Assay: flow cytometry, stable Jurkat cells, 10 ug/mL, isotype subtracted
PROPERTY: gMFI (gMFI)

binder="anti-CD300LB antibody CD-13 (antibody, V domains shown) VH: QIQLVQSGPELKKPGETVKISCKASGYTFTDYSMHWVKQAPGKGFKWMAWINTETGAPTHADDFRGRFAFSLETSASTAFLQISNLKTEDTATYFCVTFGKSYGMNYWGQGTSVTVSS VL: DIVLTQSPASLSVSLGQRATISCRASKSVGSSGSSYLHWYQQKPGQPPKLLIYLASNLESGVPARFSGSGSGTEFTLNIHPVEEEDAATYYCQHNAEVPPTFGGGTKLEIK" property=gMFI measured=7600
binder="anti-CD300LB antibody CD-12 (antibody, V domains shown) VH: QIQLVQSGPELKKPGETVKISCKASGYTFTDYSMHWVRQAPGKGLKWMAWINTETGEATHADDFKGRFDFSLDTSASTAYLQIKNLKNEDTGIYFCVCYGSSYGMDYWGQGTSVTVSS VL: DIVLTQSPASLPVSLGQRATISCRASKSVRTSGASYMHWYQQKPGQPPKLLIYLASNLKSGVPTRFSGSGSGTDFTLNIHPVEEEDAATYYCQHNREVPPTFGGGTKLEIK" property=gMFI measured=4210
binder="anti-CD300LB antibody CD-18 (antibody, V domains shown) VH: DVQLQESGPDLVKPSQSLSLTCTVTGYSITSGYSWHWIRQFPDNKLEWMGYILSRGDTNFNPSLKSRISITRSTSNNQFFLHFNSVTTEDTATYYCARDFFDYWGQGTTLTVSS VL: DVLMTQTPLSLPVSLGDQASISCRSSQSIVHSNGNTYLEWYLQKPGQSPKLLIYKVSDRFSGVPDRFSGSGSGTDFTLKISRVEAEDLGVYFCFQGSHVPYTFGGGTKLEIK" property=gMFI measured=2520
binder="anti-CD300LB antibody CD-10 (antibody, V domains shown) VH: QVQLQQSGPELVRPGVSVKISCKGSGYTFTDYAMHWVKQSHVRSREWIGVIGTYNGHTNYNQKFKGKATMTVDKSSSTAYLELARLTSEDSAIYYCARSGSYYYSMDYWGQGTSVTVSS VL: QIVLTQSPAIMSASPGEKVTMTCSASSSVNYMHWYQQKSGTSPKRWIYDTSKLSSGVPARFSGSGSGTSYSLTISTMEAEDAATYYCQQWSSNPPMTFGGGTKLEIK" property=gMFI measured=1610
binder="anti-CD300LB antibody CD-16 (antibody, V domains shown) VH: QIQLVQSGPELKKPGETVKISCKASGYTFTDYSMHWVKQAPGKGLKWMAWINTETGEPTYADDFRGRFAFSLETSGRTAYLEINNLRNEDTATYFCVTYGSSYGMAYWGQGTSVTVSS VL: DIVLTQSPASLAVSLGQRATISCRASKSVSRSGYSYLHWYQQKPGQPPKLLIYLASKLESGVPARFSGSGSGTDFTLNIHPVEAEDAATYYCQHNREIPPTFGGGTKLEIK" property=gMFI measured=4570
binder="anti-CD300LB antibody CD-17 (antibody, V domains shown) VH: QIQLVQSGPELKKPGETVKISCKASGYTLTDYSMHWVKQAPGKGLKWMGWINTETGEPRYGDDFKGRFAFSLETSASSAYLQINNLKNDDTATYFCATYGRSYGMDFWGQGTSVTVSS VL: DIVLTQSPASLAVSLGQRATISCRASKSVSPSGHSYMHWYQQKPGQPPKLLIYLASNLKSGVPARFSGSGSGTDFTLNIHPVEEGDAATYYCQHNRELPPTFGGGSKLEIK" property=gMFI measured=7920
